B1: ZNF75A (parent)
chain: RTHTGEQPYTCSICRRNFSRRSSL

# Variants of: B1
# Protocol: protein stability index of a GFP-peptide fusion (GPS, HEK-293T) (PSI 1-6); higher = more stable;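 note: lentivirally expressed fusions sorted by FACS into six bins by GFP to DsRed ratio, PSI derived from sequencing read proportions per bin multiplied by bin number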
# Assay Setup: c terminus: a fixed tail appended
Quantity Measured: protein stability index
Give bare numbers.

These solved cases illustrate the format of a correct answer.
[
  {
    "Sequence Change": "Q7M",
    "protein stability index": 2.68
  },
  {
    "Sequence Change": "R20Q",
    "protein stability index": 2.13
  },
  {
    "Sequence Change": "R15P",
    "protein stability index": 3.19
  },
  {
    "Sequence Change": "P8V",
    "protein stability index": 3.4
  },
  {
    "Sequence Change": "T4C",
    "protein stability index": 2.15
  },
  {
    "Sequence Change": "R16L",
    "protein stability index": 1.27
  }
]

Hello, I would appreciate it if you could give protein stability index for each entry below.
1. S12V
2. I13E
3. R16I
4. L24T
5. S22V
6. I13W

1. 2.98
2. 2.71
3. 1.88
4. 3.03
5. 2.93
6. 2.51

// for each variant in input: emit protein stability index
1. R21Q
2. S23I
3. S12Y
4. R15G
5. C11N

3.09
2.13
2.81
2.93
4

Each of the following entries comes with a recorded value; kindly state protein stability index for each.
1. N17R
2. C11K
3. F18L

2.99
3.93
2.21

Would you mind listing protein stability index for each of the following variants?
1. R16C
2. S23C
3. S23T

1: 1.34; 2: 2.85; 3: 2.72

Attribution: the supplement of paper PMC10567573
